So I've got a bunch of compounds here, and I need their GI50 values.
System: DU-145
Experiment: NCI tumour cell line growth inhibition, 48 h
Calls of active or inactive are those of the source. No stated cut-off is given here; in the data, active = GI50 up to about 1.1 µM and inactive = higher.

COC(=O)C1=COC2OC3C(C(C)O)C(=O)OC34C=CC1C24 (stereo not given)
57.1 µM (inactive)
COC1C(OC(C)=O)CC(=O)OC(C)C/C=C/C=C\C(O)C(C)CC(CC=O)C1OC1OC(C)C(OC2CC(C)(O)C(OC(=O)CC(C)C)C(C)O2)C(N(C)C)C1O (stereo not given)
97.9 µM (inactive)
CCOC(=O)C1CCC(=O)N1C(=O)c1ccccc1Cl (stereo not given)
> 100 µM (inactive)

Quick one: give me GI50 for each item below, same order please.
1. CCOC(=O)/C=C(/C(=O)OCC)n1c(=O)c(C)cn(C2CC(N=[N+]=[N-])C(CO)O2)c1=O (stereo not given)
2. Clc1cc(N/N=C(/c2ccccc2)c2ncccn2)ncn1
3. COc1ccccc1C1SCC(=O)N1c1ccc(-n2c(-c3ccccc3)nc3ccccc3c2=O)cc1 (stereo not given)

## Result
1: 43.5 µM (inactive); 2: 39.2 µM (inactive); 3: 52.5 µM (inactive)

List reported GI50 for each of these compounds:
1. COc1ccc(N2C(=O)C(C)SC2c2cc3cc(Br)ccc3nc2Cl)cc1 (stereo not given)
2. CC(=O)N1c2ccccc2C(C)C1c1[nH]c2ccccc2c1C (stereo not given)
3. COc1ccc(/N=N/C(=O)NC(CC(C)C)C(=O)NC(Cc2ccccc2)C(=O)O)cc1 (stereo not given)
4. Cc1nc(-c2cccnc2)sc1C(=O)CC(=O)C(=O)Nc1cccc(NC(=O)C(=O)CC(=O)c2sc(-c3cccnc3)nc2C)n1
5. COc1cc2c(NCCCCCO)ncnc2c(OC)c1OC
6. CC(C)c1ccc(/C(C(=O)O)=C(\O)C(=O)O)cc1

## Result
57.3 µM (inactive)
28.3 µM (inactive)
0.634 µM (active)
> 100 µM (inactive)
> 100 µM (inactive)
> 100 µM (inactive)

// each listed compound needs a value for GI50
1. C[S+]([O-])c1ncc2c(n1)-c1ccccc1OC2 (stereo not given)
2. CC1OC(OC2C(O[C@@H]3C[C@@H]4CC[C@@H]5[C@H](CC[C@]6(C)C7C(C[C@@H]56)O[C@]5(CC[C@@H](C)CO5)[C@H]7C)[C@@]4(C)C[C@H]3O)OC(CO)C(O)C2O)C(O)C(O)C1O (stereo not given in full)
3. Cc1cnc(NCCCN(C)C)c2c1[nH]c1ccc3cc(O)ccc3c12
4. COc1cc(/C=C(\C#N)c2ccccn2)cc(Br)c1O
5. CSc1ncnc2c1ncn2CCC(=O)O
6. S=c1sc2nc(Cl)nc(Cl)c2s1
7. Cc1ccc(C)n1-n1c(Cc2ccc(Cl)cc2)n[nH]c1=O

## Result
["38.6 µM (inactive)", "1.84 µM (inactive)", "1.29 µM (inactive)", "> 100 µM (inactive)", "> 100 µM (inactive)", "16 µM (inactive)", "> 100 µM (inactive)"]

Let me check: CC1(C)CC(=O)C(=CNc2nc(-c3cccc([N+](=O)[O-])c3)cs2)C(=O)C1 , system DU-145, measured GI50 is 29.4 µM (inactive)

* * *

Tested on: NCI-H23
Experiment: NCI tumour cell line growth inhibition, 48 h
Active and inactive are the calls of the source. Cut-off read from the data, not from the text of the source: active = GI50 up to about 1.1 µM and inactive = higher.
Experimental endpoint: GI50

COC(=O)c1ccccc1CC(Cc1ccc2c(c1)CCC2)C(=O)OC (stereo unspecified)
> 100 µM (inactive)

# map each compound to its GI50
1. COc1ccc(C2Oc3c(cc(O)c(OC)c3C)[C@@H]2C)cc1OC (stereo partly specified)
2. CCC12CCCN3CCc4c(n(c5ccccc45)C(O)(C(=O)OC)C1)C32 (stereo unspecified)

## Result
1: > 100 µM (inactive); 2: > 100 µM (inactive)

Quick batch: GI50 for everything below.
1. CN(c1ccc(Cl)cc1)S(=O)(=O)c1cccc([N+](=O)[O-])c1
2. C=CCOC(=O)C1CCC(=O)N1C(=O)C(Cl)Cl (stereo unspecified)

## Result
["34.7 µM (inactive)", "> 100 µM (inactive)"]
